Numbers sourced from PubChem BioAssay AID2289.

assayNotes: qHTS Assay for Modulators of miRNAs and/or Inhibitors of miR-21; also: potency is read from the fitted curve at half-maximal effect; nearly all actives have a fitted effect of over 55% in size
conditionsUsed: HeLa miR-21-FLuc reporter, luciferase luminescence, 48 h; actives lower the signal
In all, about 340,000 compounds went through this assay and about 3,300 (0.97%) were called active. Not shown: some 9% with an inconclusive outcome. Some of the results follow.
propertyMeasured: Potency

Value of Potency reported for the molecule `Cc1ccccc1-c1nnc(-c2ccc(Cl)cc2)o1` is 2070 nM (active)

So, `CN(C)c1ccc(-c2nnc(-c3cccs3)o2)cc1` ? Its Potency was 117 nM (active)

Entry `CCOC(=O)Cc1c(C)nc2c(-c3ccccc3)cnn2c1C` ; Potency = 16500 nM (active)

---

Record form. Attribute: Potency. Fill in for each entry.
assayNotes: qHTS Assay for Modulators of miRNAs and/or Inhibitors of miR-21; also: potency is read from the fitted curve at half-maximal effect; nearly all actives have a fitted effect of over 55% in size
conditionsUsed: HeLa miR-21-FLuc reporter, luciferase luminescence, 48 h; actives lower the signal
In all, about 340,000 compounds went through this assay and about 3,300 (0.97%) were called active. Another 9% or so got no clear call; they are omitted. Some of the results follow.

// Potency value for `O=C(c1cc(-c2ccc(Br)cc2)on1)N1CCOCC1` : 0.585 µM (active)

For `COC(=O)c1c(-c2cccnc2)csc1NC(=O)c1cc(C)on1` the molecule record lists Potency as 2.07 µM (active)

Lab book: Potency of `Clc1cccc(Cl)c1Cn1ccc(C2CC2)n1` noted as 10.4 µM (active)

Potency for `Cc1cc(OCC(=O)N2CCCCCC2)ccc1[N+](=O)[O-]` is 5.85 µM (active)

// Potency lookup, molecule = `Oc1c(/C=N/Nc2cccc3cccnc23)ccc2ccccc12` , result: 7.36 µM (active)

Short answer for `O=[N+]([O-])c1ccccc1N/N=C\c1ccccc1Cl` : Potency was 0.656 µM (active)

// Potency value for `CCN(CC)c1ccc(/C=N/N2CCOCC2)c(O)c1` : 2.93 µM (active)

Looking up `CNC(=O)/C(C#N)=C/c1ccc(-c2ccc(Cl)cc2)o1` , I see its Potency listed as 4.14 µM (active)

The recorded Potency for entry `O=c1[nH]c(COc2ccc(Br)cc2Cl)nc2ccccc12` equals 2.61 µM (active)

Just so you know, measured Potency for `CCCOc1ccc(/C=N/Nc2ccccc2[N+](=O)[O-])c(O)c1` came out at 0.0656 µM (active)

For `O=C(NCCO)c1ccc2c3n(nc2c1)-c1ccc(Cl)cc1CO3` the molecule record lists Potency as 9.27 µM (active)

So, `Cc1ccc(CONC(=O)c2ccccc2)cc1` ? Its Potency was 18.5 µM (active)

Lab note: measured Potency of `Clc1ccc(N/N=C/c2ccncc2)cc1Cl` was 8.26 µM (active)

// Potency value for `Cc1ccc(-c2nn(-c3ccccc3)cc2CO)cc1` : 14.7 µM (active)

Looking up `CCc1ccc2nc3n[nH]c(N)c3cc2c1` , I found its Potency recorded as 2.33 µM (active)

Entry under test: `CCOCCn1c(N2CCN(c3ccccc3)CC2)nc2c1c(=O)[nH]c(=O)n2C` . Its Potency was 6.56 µM (active)

// field: Potency; key: `N/C(=N\NC(=O)Nc1ccc(Cl)cc1)c1ccccn1` ; value = 3.29 µM (active)

The reported value for `Cc1ccc2c(c1)COc1c3ccc(C(=O)NCCO)cc3nn1-2` in terms of Potency is 5.21 µM (active)

The recorded Potency for `COC(=O)c1c(-c2cccnc2)csc1NC(=O)c1ccc2c(c1)OCO2` is 1.04 µM (active)

Potency for `COc1cc(CCC(C)=O)ccc1OC(=O)c1c(F)cccc1Cl` is 2.93 µM (active)

Lab note: measured Potency of `COC(=O)c1ccc(C(=O)N=c2sccn2C)cc1` was 4.14 µM (active)

The molecule listed as `Cc1ccc(/C=N/NC(=O)c2ccoc2C)o1` has a reported Potency of 16.5 µM (active)

The molecule listed as `COc1ccc(NC(=O)n2ncc3c(C)cccc32)cc1OC` shows Potency equal to 7.36 µM (active)

Record summary for `O=C(c1cc(-c2ccc(Br)cc2)on1)N1CCCCCC1` : reported Potency = 0.927 µM (active)

Given item `Cc1ccc(C(=O)Cc2nnc(C)s2)cc1` , the value recorded as its Potency is 4.14 µM (active)

The reported value for `O=C(O)c1cccc(N/N=C/c2cccnc2)c1` in terms of Potency is 2.93 µM (active)

In plain terms, `COc1ccc2c(c1)CC/C(=C\c1ccc(C)o1)C2=O` has a documented Potency of 2.93 µM (active)

Recorded Potency (molecule `NC1=NC(=O)/C(=C/c2cn(Cc3ccccc3)c3ccccc23)S1` ): 9.27 µM (active)

`Cc1cc(C)n(-c2cc(C(C)(C)C)nc3c(-c4ccccc4)cnn23)n1` has a reported Potency of 2.61 µM (active)

Lab note: `Cc1ccc(-c2nn(-c3ccccc3)cc2CO)o1` gave Potency of 1.47 µM (active)

GET /value?item= `Cc1cccc(C)c1NC(=O)/C(C#N)=C/c1ccc(-c2ccc(C(=O)O)cc2)o1` &field=Potency returns 2.07 µM (active)

So for `Fc1cccc(/C=N/NC(=S)Nc2ccccc2Cl)c1` , the logged Potency turned out to be 4.65 µM (active)

Item: CCOC(=O)COc1ccccc1C1Nc2ccccc2C(=O)N1c1cccc(Cl)c1 (stereo not drawn) | Potency: 5.85 µM (active)

What the record says about `Cc1ccsc1C(=O)OCC(=O)N1CCc2ccccc2C1` : Potency is 3.29 µM (active)

Reported Potency for `Cc1occc1C(=O)N/N=C/c1ccc(-c2ccccc2)cc1` was 0.147 µM (active)

Record summary for `Cc1csc(Nc2ccc(Cl)cc2)n1` : reported Potency = 10.4 µM (active)

`N/C(=N\NC(=O)Nc1ccccc1)c1ccccn1` has a reported Potency of 2.61 µM (active)

Reported Potency for `CCC(=O)Nc1cc(C(=O)OCC(=O)c2ccccc2)ccc1C` was 1.85 µM (active)

Field Potency (entry `Cn1ccsc1=NC(=O)c1ccc(S(=O)(=O)C(F)F)cc1` ) reads 7.36 µM (active)

Lab note: measured Potency of `Cn1c(NC(=O)CCc2ccccc2)cc(=O)n(C)c1=O` was 3.69 µM (active)

For reference, reported Potency for `Oc1ccccc1CNc1cccc2cccnc12` stands at 18.5 µM (active)

// COc1ccc2c(c1OC)C(=O)OC2Nc1nc(-c2cc3cc(Br)ccc3oc2=O)cs1 (stereo not drawn) : Potency value = 5.85 µM (active)

Data point: `O=[N+]([O-])c1ccc(N/N=C/c2cccc(O)c2O)cc1` ; Potency = 6.56 µM (active)

# molecule `Cc1c(-c2ccccc2)[nH]n2c(=O)c3c(nc12)CCCC3` ; its Potency = 2.93 µM (active)

Sample `CC(C)Nc1cc(C(C)(C)C)nc2c(-c3ccccc3)cnn12` ; Potency observed: 6.56 µM (active)

// sample `O=c1[nH]c(COc2ccc(Cl)cc2Br)nc2ccccc12` , its Potency was 3.29 µM (active)

Recorded Potency (molecule `Nc1ccc2c(c1)sc1ccccc12` ): 6.56 µM (active)

Potency reported for this molecule `Cc1nn(C(=O)c2cccs2)c(N)c1-c1ccccc1` : 5.21 µM (active)
